biological target: YAP1 169-207, P46937
Sequence (P46937 169-207): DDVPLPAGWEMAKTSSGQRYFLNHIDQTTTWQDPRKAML
MEASUREMENT LABEL: selected by phage display

1) MGDLPPYPERPAQQPP [RSPH6A, Q9H0K4]; confidence 2 (active)
2) PSAMLPIYPAIDIDAQ [ANKRD17, O75179]; confidence 2 (active)
3) DLHHTPGYPTPPPYPF [C11orf53, Q8IXP5]; confidence 3 (active)
4) DQRLPPYPYSSPSLVL [CRTC2, Q53ET0]; confidence 3 (active)
5) SPSQYINEENLPVYPD [KNL1, Q8NG31]; confidence 2 (active)
6) PPAYEDVVHRPGTPPP [WBP1, Q96G27]; confidence 3 (active)
7) YTREGEPLPPPYSLRE [TPSG1, Q9NRR2]; confidence 3 (active)
8) QALPDYSLGPHYTSQK [CSRNP1, Q96S65]; confidence 2 (active)
9) SPPAYHMHVFDRPYPL [CUEDC1, Q9NWM3]; confidence 3 (active)
10) TEVYGEFYPVPPPYSV [NDFIP2, Q9NV92]; confidence 4 (active)
11) EYQQVPNSDPPRYEFL [MAGEB18, Q96M61]; confidence 2 (active)
12) IAPPQYVTTSASNIVS [ARID2, Q68CP9]; confidence 4 (active)
13) DGKGAKPPEYRNYQIV [MFSD6, Q6ZSS7]; confidence 3 (active)
14) IELLPSYSTATLIDEP [SLC34A2, O95436]; confidence 3 (active)
15) ADLPPPYSPTPQGPAQ [CYYR1, Q96J86]; confidence 3 (active)
